# Test system: Staphylococcus saprophyticus (ATCC BAA-750)
# assay-protocol: MIC80 on S. saprophyticus
# Format: cell-based
# measurement-parameters: Staphylococcus saprophyticus, ATCCBAA750; S. saprophyticus ATCC BAA-750; read-out: MIC80 S. sapro
# Procedure: To further characterize the compounds, the minimal inhibitory concentration (MIC80) were determined for selected compounds. MIC80 is defined as the compound concentration at which ≥80% bacterial growth is inhibited compare to untreated controls. Meanwhile, for the selected compounds, cytotoxicity assays (CC50) were performed on a HepG2-derived hepatoblastoma cell line (HEPDES19). […]
Reported MIC80 values are given for each entry in this list.
Value expressed in µM; do not type the unit.

Examples with answers:
[[record]]
cpd_smiles = "CC1=C(C#N)C(O)=NC(=O)/C1=C\\c1ccc(-c2ccccc2)o1"
unit_info = "µM"
numeric_value = 12.7

[[record]]
cpd_smiles = "O=C(Oc1cccccc1=O)c1ccc([N+](=O)[O-])cc1"
unit_info = "µM"
numeric_value = 15.1

[[record]]
cpd_smiles = "O=c1ccccc(Br)c1O"
unit_info = "µM"
numeric_value = 14.9


Now, please, on to the next molecule.
[ask] Please give the measured MIC80 for this molecule: O=c1ccc2ccccc2n1O
[reply] 11.4

###

# Tested on: Coagulase negative Staphylococcus
# assay-protocol: Antibiotic susceptibility of coagulase negative Staphylococcus strains
# Assay type: cell-based
# measurement-parameters: CNS2 (Coagulase negative Staphylococcus)
assay-readout: Antibiotic susceptibility

[[record]]
cpd_smiles = "Cc1onc(-c2ccccc2)c1C(=O)N[C@@H]1C(=O)N2[C@@H]1SC(C)(C)[C@@H]2C(=O)O"
assay_readout = "Antibiotic susceptibility"
result = "R"

[[record]]
cpd_smiles = "CCCCCCCCCC(=O)N[C@@H](Cc1c[nH]c2ccccc12)C(=O)N[C@H](CC(N)=O)C(=O)N[C@@H](CC(=O)O)C(=O)N[C@@H]1C(=O)NCC(=O)N[C@@H](CCCN)C(=O)N[C@@H](CC(=O)O)C(=O)N[C@H](C)C(=O)N[C@@H](CC(=O)O)C(=O)NCC(=O)N[C@H](CO)C(=O)N[C@@H]([C@H](C)CC(=O)O)C(=O)N[C@@H](CC(=O)c2ccccc2N)C(=O)O[C@@H]1C"
assay_readout = "Antibiotic susceptibility"
result = "S"


###

# Test system: HepG2-derived hepatoblastoma cell line (HEPDES19)
# assay-protocol: Cytotoxicity assay (CC50), MTS
# Assay type: cell-based, human
# measurement-parameters: HEPDES19 cells
assay-readout: CC50

A selection of reference data follows.
[[record]]
molecule = "O=c1cccccc1O [Compound 53]"
assay_readout = "CC50"
result = "≥ 100 µM"

[[record]]
molecule = "Cc1cc(O)c(=O)c(O)cc1-c1ccc(Br)cc1 [Compound 114]"
assay_readout = "CC50"
result = "38 µM"

[[record]]
molecule = "O=C(Sc1cccccc1=O)c1ccc(C(F)(F)F)cc1 [Compound 682]"
assay_readout = "CC50"
result = "82.9 µM"

[[record]]
molecule = "COc1ccccc1C(=O)Oc1cccccc1=O [Compound 285]"
assay_readout = "CC50"
result = "≥ 100 µM"

[[record]]
molecule = "O=C(Oc1cccccc1=O)c1ccc(Cl)cc1 [Compound 63]"
assay_readout = "CC50"
result = "≥ 100 µM"


[ask] Bench note: what CC50 did Cc1cc(O)c(=O)c(O)cc1C(=O)c1cccs1 [Compound 308] show?
[reply] 26 µM

[ask] Endpoint output: CC50 of CC(=O)c1c(C)cc(O)c(=O)c(O)c1-c1ccc2ccccc2c1 [Compound 332] . Value?
[reply] 38 µM

[ask] Return reported CC50; argument: O=c1c(Br)cc(Br)cc(Br)c1O [Compound 350]
[reply] 45 µM

[ask] CC50 for CC(C)C(CO)n1cc(C(=O)O)c(=O)c2cc(Cc3cccc(Cl)c3F)c(F)cc21 (stereo not shown) [Compound 75] ?
[reply] 28 µM

[ask] Look at this molecule and give its reported CC50. O=c1ccc2ccccc2n1O [Compound 43]
[reply] ≥ 100 µM
